Target: panel of 203 kinases (Homo sapiens)
Construct: purchased DiscoverX (KINOMEscan)
Sequence (Q13131 whole entry): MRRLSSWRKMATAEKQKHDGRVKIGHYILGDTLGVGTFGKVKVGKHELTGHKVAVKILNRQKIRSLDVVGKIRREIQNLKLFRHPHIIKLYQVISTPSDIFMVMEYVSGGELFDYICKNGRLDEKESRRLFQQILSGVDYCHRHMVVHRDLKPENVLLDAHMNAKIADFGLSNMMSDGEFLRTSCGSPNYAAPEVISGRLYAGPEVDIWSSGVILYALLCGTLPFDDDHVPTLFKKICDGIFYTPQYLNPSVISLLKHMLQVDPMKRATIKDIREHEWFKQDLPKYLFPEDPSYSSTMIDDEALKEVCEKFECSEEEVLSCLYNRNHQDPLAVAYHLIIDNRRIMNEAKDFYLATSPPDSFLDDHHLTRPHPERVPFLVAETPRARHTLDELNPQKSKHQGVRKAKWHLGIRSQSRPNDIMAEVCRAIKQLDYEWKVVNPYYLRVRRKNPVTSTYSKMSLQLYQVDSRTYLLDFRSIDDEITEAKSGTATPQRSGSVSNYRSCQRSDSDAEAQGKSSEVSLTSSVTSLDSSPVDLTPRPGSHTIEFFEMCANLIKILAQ
Assay: KINOMEscan competitive binding, whole panel
Details: 10 µM, n=1; kinase AMPK-alpha1; read-out: Percent inhibition AMPK-alpha1
PROPERTY_NAME: inhibition at 10 µM

CN1CCN(c2ccc(Nc3nccc(-c4cnn5ncccc45)n3)cc2C#N)CC1: 75.7%
Nc1ncc2c(-c3ccncc3)c[nH]c2n1: 0%
Clc1ccc(Nc2ncc(-c3ccccc3)s2)cc1: 0%

For every item in the list below, what is its measured inhibition at 10 µM?
1. COc1cc(Nc2nccc(-c3sc(N)nc3-c3cccc(NC(=O)c4c(F)cccc4F)c3)n2)cc(OC)c1OC
2. COc1ccc(Nc2nccc(-c3cnn4ncccc34)n2)cc1
3. Fc1cccc(COc2ccc(Nc3ncnc4c3CN(CCN3CCOCC3)CC4)cc2Cl)c1
4. Cc1ccc(O)cc1N(C)c1ccnc(Nc2cccc(S(N)(=O)=O)c2)n1
5. Cc1ccc(O)cc1Nc1ccnc(Nc2cccc(C(N)=O)c2)n1
6. c1ccc(COc2cccc(-c3ccnc4[nH]ccc34)c2)cc1
7. C[C@@H](Oc1cc(-c2cnc3ccccn23)sc1C(N)=O)c1ccccc1Cl

Response line:
1: 98.4%; 2: 0%; 3: 0%; 4: 0%; 5: 0%; 6: 0%; 7: 0%

###

Molecular target: LKB1 (Homo sapiens, UniProt Q15831)
Construct: purchased DiscoverX (KINOMEscan)
Sequence (Q15831 1-433): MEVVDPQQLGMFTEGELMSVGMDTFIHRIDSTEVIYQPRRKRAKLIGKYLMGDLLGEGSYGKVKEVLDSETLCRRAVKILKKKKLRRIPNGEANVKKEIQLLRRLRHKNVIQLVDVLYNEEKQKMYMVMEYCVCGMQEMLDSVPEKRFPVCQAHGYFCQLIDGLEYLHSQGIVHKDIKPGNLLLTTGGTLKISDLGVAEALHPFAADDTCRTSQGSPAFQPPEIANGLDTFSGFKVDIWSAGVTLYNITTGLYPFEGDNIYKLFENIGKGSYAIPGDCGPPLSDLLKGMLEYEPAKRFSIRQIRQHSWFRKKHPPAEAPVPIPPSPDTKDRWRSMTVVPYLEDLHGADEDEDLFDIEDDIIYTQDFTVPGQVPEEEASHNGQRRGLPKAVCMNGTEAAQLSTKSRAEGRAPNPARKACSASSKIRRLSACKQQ
Assay: KINOMEscan competitive binding
Settings: 10 µM, n=1; kinase LKB1; read-out: Percent inhibition LKB1
Excerpt: The kinases were expressed as fusions to T7 bacteriophage. This is a sensitive, competitive binding assay where test compounds were used to displace immobilized ATP-site binding probe ligands from kinases of interest. The amount of kinase that remained bound to the immobilized probe ligands on the solid support was quantified. Percentage inhibition data were was plotted on kinome trees using the web-based tool KinMap (http://www.kinhub.org/kinmap) ([60]).
Assign inhibition at 10 µM to each entry below.
One number for each entry, in %.

Please state inhibition at 10 µM for every compound in the list that follows.
1. Nc1ncc2c(-c3ccncc3)c[nH]c2n1
2. CN1CCN(c2ccc(Nc3nccc(-c4cnn5ncccc45)n3)cc2C#N)CC1
3. Fc1cccc(COc2ccc(Nc3ncnc4c3CN(CCN3CCOCC3)CC4)cc2Cl)c1
4. Cc1ccc(O)cc1N(C)c1ccnc(Nc2cccc(S(N)(=O)=O)c2)n1
5. c1ccc(COc2cccc(-c3ccnc4[nH]ccc34)c2)cc1

Response line:
1. 80
2. 100
3. 0
4. 77.3
5. 99.5
